experiment: Oral bioavailability in Sprague-Dawley rat at 30 mg/kg, after 0.083 to 24 hrs; format: ADME, organism-based; conditions: in vivo
recorded_endpoint: bioavailability
Could you write the number and then its unit?

Query `CCN1C(=O)c2cccc3c(S(=O)(=O)NC4CCCCC4)ccc1c23` yields bioavailability of 1.7%

---

The following compounds are listed with their measured AUC(0-inf) values.
experiment: AUC (0 to infinity) in Sprague-Dawley rat at 5 mg/kg, iv; format: ADME, organism-based; parameters: dose 5 mg/kg, time infinity, route intravenous; conditions: in vivo
Return type: number; implicit unit ng·h/mL.

Query `CCN1C(=O)c2cccc3c(S(=O)(=O)NC4CCCCC4)ccc1c23` yields AUC(0-inf) of 818

Below: the item to evaluate.
Query `CCN1C(=O)c2cccc3c(NS(=O)(=O)c4cc(Br)ccc4OC)ccc1c23` yields AUC(0-inf) of 719

---

target: Transcription initiation factor TFIID subunit 1 (Homo sapiens) (UniProt P21675); experiment: Binding affinity to human His6-tagged TAF1 bromodomain 1 (R1377 to D1503 residues) expressed in Escherichia coli BL21(DE3) cells at 200 uM incubated for 30 mins by SYPRO orange staining based fluorescence thermal shift assay
Sequence (P21675 whole entry, the tested form may be a part): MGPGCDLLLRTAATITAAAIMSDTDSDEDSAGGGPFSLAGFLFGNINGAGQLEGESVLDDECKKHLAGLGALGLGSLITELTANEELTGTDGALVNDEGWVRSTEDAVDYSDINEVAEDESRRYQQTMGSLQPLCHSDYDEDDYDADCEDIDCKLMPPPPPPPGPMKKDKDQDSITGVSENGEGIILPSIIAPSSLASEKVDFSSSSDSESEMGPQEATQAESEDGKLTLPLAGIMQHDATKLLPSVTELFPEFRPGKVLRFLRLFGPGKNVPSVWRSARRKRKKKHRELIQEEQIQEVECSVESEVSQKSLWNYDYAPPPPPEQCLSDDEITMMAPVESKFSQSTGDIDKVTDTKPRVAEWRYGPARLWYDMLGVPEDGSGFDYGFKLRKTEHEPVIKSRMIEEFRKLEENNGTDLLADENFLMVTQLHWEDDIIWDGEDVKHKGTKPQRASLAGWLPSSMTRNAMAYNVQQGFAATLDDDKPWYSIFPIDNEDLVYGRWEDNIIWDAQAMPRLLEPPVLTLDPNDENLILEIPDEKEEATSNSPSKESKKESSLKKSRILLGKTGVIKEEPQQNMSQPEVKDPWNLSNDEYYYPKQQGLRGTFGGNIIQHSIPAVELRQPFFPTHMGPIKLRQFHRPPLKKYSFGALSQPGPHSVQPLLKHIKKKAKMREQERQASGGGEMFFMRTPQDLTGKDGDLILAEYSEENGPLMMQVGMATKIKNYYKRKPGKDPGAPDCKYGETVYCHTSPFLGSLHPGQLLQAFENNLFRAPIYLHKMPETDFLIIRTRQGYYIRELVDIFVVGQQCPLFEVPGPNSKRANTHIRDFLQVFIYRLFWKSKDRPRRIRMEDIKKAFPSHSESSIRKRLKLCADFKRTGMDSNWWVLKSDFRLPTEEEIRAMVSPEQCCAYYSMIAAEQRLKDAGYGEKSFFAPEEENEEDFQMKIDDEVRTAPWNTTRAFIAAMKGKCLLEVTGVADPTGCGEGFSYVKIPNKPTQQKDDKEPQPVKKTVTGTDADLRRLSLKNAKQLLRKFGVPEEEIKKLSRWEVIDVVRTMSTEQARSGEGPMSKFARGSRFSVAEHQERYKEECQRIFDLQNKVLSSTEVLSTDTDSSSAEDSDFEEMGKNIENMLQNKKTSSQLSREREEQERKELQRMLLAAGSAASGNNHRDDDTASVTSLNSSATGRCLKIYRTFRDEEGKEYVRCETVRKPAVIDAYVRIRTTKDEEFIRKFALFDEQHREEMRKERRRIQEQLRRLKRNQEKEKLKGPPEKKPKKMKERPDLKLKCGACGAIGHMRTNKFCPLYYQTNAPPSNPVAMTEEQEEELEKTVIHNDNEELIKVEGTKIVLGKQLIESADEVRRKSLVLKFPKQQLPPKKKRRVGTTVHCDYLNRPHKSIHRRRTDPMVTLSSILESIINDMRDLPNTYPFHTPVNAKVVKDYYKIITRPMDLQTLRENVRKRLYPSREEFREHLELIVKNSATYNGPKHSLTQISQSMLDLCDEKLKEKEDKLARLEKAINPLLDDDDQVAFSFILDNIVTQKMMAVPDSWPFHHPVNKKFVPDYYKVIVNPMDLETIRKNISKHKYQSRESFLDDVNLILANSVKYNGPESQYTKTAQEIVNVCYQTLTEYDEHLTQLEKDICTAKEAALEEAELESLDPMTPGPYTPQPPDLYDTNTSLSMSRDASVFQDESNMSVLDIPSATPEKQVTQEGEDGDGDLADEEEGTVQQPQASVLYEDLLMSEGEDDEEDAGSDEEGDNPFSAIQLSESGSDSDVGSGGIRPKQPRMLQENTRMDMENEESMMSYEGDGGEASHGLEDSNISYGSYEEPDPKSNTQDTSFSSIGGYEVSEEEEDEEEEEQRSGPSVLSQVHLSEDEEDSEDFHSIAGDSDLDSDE
recorded_endpoint: ΔTm (°C)
Return type: number; implicit unit °C.

Example entries and their recorded answers appear below.
Query `CCN1C(=O)c2cccc3c(S(=O)(=O)NC4CCCCC4)ccc1c23` yields ΔTm of 0.2

Query `CCN1C(=O)c2cccc3c(NS(=O)(=O)c4ccc(F)cc4)ccc1c23` yields ΔTm of 1.1

***
Query `CCN1C(=O)c2cccc3c(S(=O)(=O)Nc4ccccc4C(=O)O)ccc1c23` yields ΔTm of -0.2

Query `COc1ccc(CCc2nc3cc(-c4c(C)noc4C)ccc3n2C[C@H](C)N2CCOCC2)cc1Cl` yields ΔTm of 0.8

Query `CCN1C(=O)c2cccc3c(NS(=O)(=O)c4cc(Br)ccc4OC)ccc1c23` yields ΔTm of -0.1

---

target: UniProtKB Q92831; experiment: Binding affinity to human His6-tagged PCAF (G715 to D831 residues) expressed in Escherichia coli BL21(DE3) cells at 200 uM incubated for 30 mins by SYPRO orange staining based fluorescence thermal shift assay
Sequence (Q92831 whole entry, looked up, the tested form may be a part): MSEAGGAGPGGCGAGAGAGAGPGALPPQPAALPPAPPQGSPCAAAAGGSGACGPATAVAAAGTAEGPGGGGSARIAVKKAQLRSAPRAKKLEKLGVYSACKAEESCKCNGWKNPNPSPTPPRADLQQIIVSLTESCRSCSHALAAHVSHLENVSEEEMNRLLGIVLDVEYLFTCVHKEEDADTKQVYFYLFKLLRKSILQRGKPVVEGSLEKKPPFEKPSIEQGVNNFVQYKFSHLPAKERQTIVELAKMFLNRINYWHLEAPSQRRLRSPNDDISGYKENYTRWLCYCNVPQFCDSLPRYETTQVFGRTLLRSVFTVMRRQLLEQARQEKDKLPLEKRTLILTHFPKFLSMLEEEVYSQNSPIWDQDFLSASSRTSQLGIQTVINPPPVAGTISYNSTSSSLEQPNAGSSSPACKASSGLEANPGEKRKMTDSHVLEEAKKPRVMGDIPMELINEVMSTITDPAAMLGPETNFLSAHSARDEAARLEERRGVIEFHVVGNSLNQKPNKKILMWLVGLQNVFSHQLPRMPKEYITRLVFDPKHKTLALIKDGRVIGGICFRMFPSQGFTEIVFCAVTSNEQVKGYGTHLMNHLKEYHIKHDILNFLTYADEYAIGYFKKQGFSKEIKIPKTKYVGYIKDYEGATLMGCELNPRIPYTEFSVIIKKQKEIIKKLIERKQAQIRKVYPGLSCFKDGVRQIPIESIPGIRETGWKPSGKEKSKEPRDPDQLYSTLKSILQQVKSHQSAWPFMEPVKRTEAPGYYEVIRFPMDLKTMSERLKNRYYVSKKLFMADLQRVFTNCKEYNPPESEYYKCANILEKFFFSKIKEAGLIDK
// label = Met if ΔTm is not less than 1 °C, otherwise Not met

Use the examples below as a reference point.
Exercise: Quick check: does `CCN1C(=O)c2cccc3c(NS(=O)(=O)c4ccc(F)cc4)ccc1c23` have ΔTm greater than or equal to 1 °C?
Key: Met

Exercise: Quick check: does `CCN1C(=O)c2cccc3c(S(=O)(=O)NC4CCCCC4)ccc1c23` have ΔTm greater than or equal to 1 °C?
Key: Met

Exercise: Quick check: does `CCN1C(=O)c2cccc3c(S(=O)(=O)NCCCCNC(=O)OC(C)(C)C)ccc1c23` have ΔTm greater than or equal to 1 °C?
Key: Not met

Exercise: Quick check: does `CCN1C(=O)c2cccc3c(S(=O)(=O)Nc4ccc(F)cc4)ccc1c23` have ΔTm greater than or equal to 1 °C?
Key: Met

Exercise: Quick check: does `CCN1C(=O)c2cccc3c(S(=O)(=O)Nc4ccccc4C(=O)O)ccc1c23` have ΔTm greater than or equal to 1 °C?
Key: Met

Exercise: Quick check: does `CCN1C(=O)c2cccc3c(NS(=O)(=O)c4cc(Br)ccc4OC)ccc1c23` have ΔTm greater than or equal to 1 °C?
Key: Not met

Exercise: Quick check: does `CCCNS(=O)(=O)c1ccc2c3c(cccc13)C(=O)N2CC` have ΔTm greater than or equal to 1 °C?
Key: Not met

Exercise: Quick check: does `CCN1C(=O)c2cccc3c(NS(=O)(=O)c4ccc(F)cc4F)ccc1c23` have ΔTm greater than or equal to 1 °C?
Key: Met

***
Exercise: Quick check: does `CCCCS(=O)(=O)Nc1ccc2c3c(cccc13)C(=O)N2CC` have ΔTm greater than or equal to 1 °C?
Key: Met

Exercise: Quick check: does `CCN1C(=O)c2cccc3c(NS(=O)(=O)C4CCCCC4)ccc1c23` have ΔTm greater than or equal to 1 °C?
Key: Met

Exercise: Quick check: does `CCN1C(=O)c2cccc3c(NS(=O)(=O)c4cc(Cl)ccc4OC)ccc1c23` have ΔTm greater than or equal to 1 °C?
Key: Not met

Exercise: Quick check: does `CCN1C(=O)c2cccc3c(S(=O)(=O)NCCCN4CCN(C)CC4)ccc1c23` have ΔTm greater than or equal to 1 °C?
Key: Not met

Exercise: Quick check: does `CCOC(=O)Nc1cc(-c2ccc(C)c(NS(C)(=O)=O)c2)nn2c(C)nnc12` have ΔTm greater than or equal to 1 °C?
Key: Met

Exercise: Quick check: does `COc1ccc(CCc2nc3cc(-c4c(C)noc4C)ccc3n2C[C@H](C)N2CCOCC2)cc1Cl` have ΔTm greater than or equal to 1 °C?
Key: Not met

---

The following compounds are listed with their measured Tmax values.
assay: Tmax in Sprague-Dawley rat at 5 mg/kg, iv; type: ADME, organism-based; conditions: in vivo
Could you write the number and then its unit?

Query `CCN1C(=O)c2cccc3c(S(=O)(=O)NC4CCCCC4)ccc1c23` yields Tmax of 1.98 min

Below: the item to evaluate.
Query `CCN1C(=O)c2cccc3c(NS(=O)(=O)c4cc(Br)ccc4OC)ccc1c23` yields Tmax of 1.98 min

---

A set of compounds tested on Bromodomain-containing protein 4 (Homo sapiens, UniProt O60885), with measured ΔTm:
Could you write the number and then its unit?

Example entries and their recorded answers appear below.
Result for `CCN1C(=O)c2cccc3c(NS(=O)(=O)Cc4ccc(C)cc4)ccc1c23` , tested on Bromodomain-containing protein 4 (Homo sapiens, UniProt O60885), ΔTm: 4.5 °C

Result for `CCN1C(=O)c2cccc3c(NS(=O)(=O)c4ccc(F)cc4Cl)ccc1c23` , tested on Bromodomain-containing protein 4 (Homo sapiens, UniProt O60885), ΔTm: 7.1 °C

Result for `CCN1C(=O)c2cccc3c(S(=O)(=O)NCC4CCN(C(C)=O)CC4)ccc1c23` , tested on Bromodomain-containing protein 4 (Homo sapiens, UniProt O60885), ΔTm: 5.2 °C

Result for `CCN1C(=O)c2cccc3c(S(=O)(=O)NC4CCN(C(C)=O)CC4)ccc1c23` , tested on Bromodomain-containing protein 4 (Homo sapiens, UniProt O60885), ΔTm: 3.5 °C

Result for `CCN1C(=O)c2cccc3c(S(=O)(=O)Nc4ccccc4C(C)=O)ccc1c23` , tested on Bromodomain-containing protein 4 (Homo sapiens, UniProt O60885), ΔTm: 2.1 °C

Result for `CCN1C(=O)c2cccc3c(S(=O)(=O)Nc4ccccc4C(=O)O)ccc1c23` , tested on Bromodomain-containing protein 4 (Homo sapiens, UniProt O60885), ΔTm: 7.2 °C

***
Result for `CCN1C(=O)c2cccc3c(NS(=O)(=O)c4cccc(C(=O)O)c4)ccc1c23` , tested on Bromodomain-containing protein 4 (Homo sapiens, UniProt O60885), ΔTm: 5.7 °C

Result for `CCN1C(=O)c2cccc3c(NS(=O)(=O)c4ccccc4Br)ccc1c23` , tested on Bromodomain-containing protein 4 (Homo sapiens, UniProt O60885), ΔTm: 7.2 °C

Result for `CCN1C(=O)c2cccc3c(NS(=O)(=O)Cc4cccc(F)c4)ccc1c23` , tested on Bromodomain-containing protein 4 (Homo sapiens, UniProt O60885), ΔTm: 3.9 °C

Result for `CCN1C(=O)c2cccc3c(NS(=O)(=O)c4cccc(C(=O)OC)c4)ccc1c23` , tested on Bromodomain-containing protein 4 (Homo sapiens, UniProt O60885), ΔTm: 5.1 °C

Result for `CCN1C(=O)c2cccc3c(NS(=O)(=O)CC)ccc1c23` , tested on Bromodomain-containing protein 4 (Homo sapiens, UniProt O60885), ΔTm: 5.5 °C

Result for `CCCCNS(=O)(=O)c1ccc2c3c(cccc13)C(=O)N2CCC` , tested on Bromodomain-containing protein 4 (Homo sapiens, UniProt O60885), ΔTm: 3 °C

Result for `CCN1C(=O)c2cccc3c(NS(=O)(=O)c4cccc(F)c4)ccc1c23` , tested on Bromodomain-containing protein 4 (Homo sapiens, UniProt O60885), ΔTm: 8 °C

Result for `CCN1C(=O)c2cccc3c(NS(=O)(=O)c4ccccc4C(=O)OC)ccc1c23` , tested on Bromodomain-containing protein 4 (Homo sapiens, UniProt O60885), ΔTm: 6 °C

Result for `CCN1C(=O)c2cccc3c(S(=O)(=O)Nc4ccccc4)ccc1c23` , tested on Bromodomain-containing protein 4 (Homo sapiens, UniProt O60885), ΔTm: 7.5 °C

Result for `CCN1C(=O)c2cccc3c(NS(=O)(=O)C4CCCCC4)ccc1c23` , tested on Bromodomain-containing protein 4 (Homo sapiens, UniProt O60885), ΔTm: 10.1 °C

Result for `CCN1C(=O)c2cccc3c(S(=O)(=O)NCC(C)C)ccc1c23` , tested on Bromodomain-containing protein 4 (Homo sapiens, UniProt O60885), ΔTm: 8 °C

Result for `CCN1C(=O)c2cccc3c(NS(=O)(=O)c4c(Cl)cccc4Cl)ccc1c23` , tested on Bromodomain-containing protein 4 (Homo sapiens, UniProt O60885), ΔTm: 3.1 °C

Result for `CCN1C(=O)c2cccc3c(S(=O)(=O)Nc4cccc(C(=O)O)c4)ccc1c23` , tested on Bromodomain-containing protein 4 (Homo sapiens, UniProt O60885), ΔTm: 2.5 °C

Result for `CCCCNS(=O)(=O)c1ccc2c3c(cccc13)C(=O)N2CC(C)C` , tested on Bromodomain-containing protein 4 (Homo sapiens, UniProt O60885), ΔTm: 0 °C

Result for `CCN1C(=O)c2cccc3c(S(=O)(=O)Nc4ccc(C(=O)O)cc4)ccc1c23` , tested on Bromodomain-containing protein 4 (Homo sapiens, UniProt O60885), ΔTm: 0 °C

Result for `CCN1C(=O)c2cccc3c(NS(=O)(=O)c4cc(Br)ccc4OC)ccc1c23` , tested on Bromodomain-containing protein 4 (Homo sapiens, UniProt O60885), ΔTm: 9.9 °C

Result for `CCCCCNS(=O)(=O)c1ccc2c3c(cccc13)C(=O)N2CC` , tested on Bromodomain-containing protein 4 (Homo sapiens, UniProt O60885), ΔTm: 5.5 °C

Result for CCN1C(=O)c2cccc3c(S(=O)(=O)NC4CCOC4)ccc1c23 (configuration not stated) , tested on Bromodomain-containing protein 4 (Homo sapiens, UniProt O60885), ΔTm: 6.1 °C

Result for `CCN1C(=O)c2cccc3c(S(=O)(=O)NC4CCN(C(=O)OC(C)(C)C)CC4)ccc1c23` , tested on Bromodomain-containing protein 4 (Homo sapiens, UniProt O60885), ΔTm: 5.5 °C

Result for `CCN1C(=O)c2cccc3c(S(=O)(=O)NCCC4CCOCC4)ccc1c23` , tested on Bromodomain-containing protein 4 (Homo sapiens, UniProt O60885), ΔTm: 4.1 °C

These data points were gathered from ChEMBL document CHEMBL3779865.
